test_name: Components of the Cytosolic LPS Sensing Pathway: Gene Identification via Genome-wide siRNA Screen
assay_context: RAW264.7 macrophages, IL-1a HTRF, actives lie on both sides, screened at 100 nM (by protocol), cells primed 5 h with Pam3CSK4 first
Among all 53,000 sequences or so, about 3,700 (7%) were called active.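 The calls were made as follows: active = gene knockdowns whose robust z-score for IL-1 alpha signal is at least 2 or at most -2, so actives lie on both sides; inactive = the rest.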 The entries come from a sample that favours actives as a whole.
Labels: active, inactive

>>> discrete_label("GCGGGAGCUUAGCUUUUAUTT against G6pc3")
"active"
>>> discrete_label("GUACUAGUGGUGACUGCAUTT against Olfr462")
"inactive"
>>> discrete_label("GGUUUGAGAAAUUGGACAUTT against Pou6f1")
"active"
>>> discrete_label("GAAUCGGAGGACAAAAUACTT against Emx1")
"inactive"
>>> discrete_label("GGUCAAGCAAGUGUUGGUUTT against Gart")
"inactive"
>>> discrete_label("GGCUGAUGAUACUUAAACATT against Vmn1r83")
"inactive"
>>> discrete_label("GCGACUUCGCUAUAUCAAGTT against Samhd1")
"inactive"
>>> discrete_label("CGUGGUUUGUCAAUGAAGGTT against Eprs")
"inactive"
>>> discrete_label("GGUGGAACCCAAUGACACCTT against Cers5")
"inactive"
>>> discrete_label("GGAAACAACCCAAAGAAUCTT against Slc12a8")
"inactive"
